- System: red blood cells (mechanically defibrinated sheep blood)
- method.description: Hemolysis assay (cell lysis)
- Type: cell-based
- Parameters: unit not given here
- measurement.parameters: Concentration 1 μM; 1 hour, 37° C.
So I've got a bunch of compounds here, and I need their red blood cell lysis values.

Problem: Kindly state the measured red blood cell lysis obtained for "CC(C)(C)c1ccc(CCc2ccc(C(C)(C)C)c(O)c2)cc1O" with red blood cells (mechanically defibrinated sheep blood).
Result: −0.02

Problem: Kindly state the measured red blood cell lysis obtained for "COc1cccc(CCc2ccccc2O)c1" with red blood cells (mechanically defibrinated sheep blood).
Result: −0.03

Problem: Kindly state the measured red blood cell lysis obtained for "CC(C)(C)c1ccc(CCc2cccc(O)c2)cc1O" with red blood cells (mechanically defibrinated sheep blood).
Result: −0.03

Problem: Kindly state the measured red blood cell lysis obtained for "COc1cc(CCc2ccc(C(C)(C)C)c(O)c2)ccc1C(C)(C)C" with red blood cells (mechanically defibrinated sheep blood).
Result: −0.02

Problem: Kindly state the measured red blood cell lysis obtained for "CC(C)(C)c1ccc(Cc2ccc(C(C)(C)C)c(O)c2)cc1O" with red blood cells (mechanically defibrinated sheep blood).
Result: −0.02

====

- System: red blood cells (mechanically defibrinated sheep blood)
- method.description: Hemolysis assay (cell lysis)
- Assay type: cell-based
- Parameters: unit not given here
- measurement.parameters: Concentration 125 μM; 1 hour, 37° C.
readout.name: red blood cell lysis
// return a plain number; no unit text

Problem: # red blood cell lysis lookup, item "COc1cc(CCc2ccc(C(C)(C)C)c(O)c2)ccc1C(C)(C)C"
Result: 0.12

Problem: # red blood cell lysis lookup, item "CC(C)(C)c1ccc(CCc2ccc(C(C)(C)C)c(O)c2)cc1O"
Result: 0.43

Problem: # red blood cell lysis lookup, item "COc1cccc(CCc2ccccc2O)c1"
Result: −0.02

Problem: # red blood cell lysis lookup, item "CC(C)(C)c1ccc(CCc2cccc(O)c2)cc1O"
Result: 0.46

Problem: # red blood cell lysis lookup, item "CC(C)(C)c1ccc(Cc2ccc(C(C)(C)C)c(O)c2)cc1O"
Result: 0.43

====

So I've got a bunch of molecules here, and I need their red blood cell lysis values.
- Tested on: red blood cells (mechanically defibrinated sheep blood)
- method.description: Hemolysis assay (cell lysis)
- Format: cell-based
- Set-up: unit not given here
- measurement.parameters: Concentration 500 μM; 1 hour, 37° C.; TritonX 100% lysis, PBS 0% lysis
// return a plain number; no unit text

Problem: # red blood cell lysis lookup, item "CC(C)(C)c1ccc(CCc2cccc(O)c2)cc1O"
Result: 0.81

Problem: # red blood cell lysis lookup, item "COc1cccc(CCc2ccccc2O)c1"
Result: 0.27

Problem: # red blood cell lysis lookup, item "CC(C)(C)c1ccc(CCc2ccc(C(C)(C)C)c(O)c2)cc1O"
Result: 0.48

Problem: # red blood cell lysis lookup, item "CC(C)(C)c1ccc(Cc2ccc(C(C)(C)C)c(O)c2)cc1O"
Result: 0.74

Problem: # red blood cell lysis lookup, item "COc1cc(CCc2ccc(C(C)(C)C)c(O)c2)ccc1C(C)(C)C"
Result: 0.33

====

So I've got a bunch of molecules here, and I need their red blood cell lysis values.
- Tested on: red blood cells (mechanically defibrinated sheep blood)
- method.description: Hemolysis assay (cell lysis)
- Type: cell-based
- Set-up: unit not given here
- measurement.parameters: Concentration 32 μM; 1 hour, 37° C.
- Procedure: The effects of the compounds described herein to lyse cells was evaluated in this example. Hemolysis assays were performed on mechanically defibrinated sheep blood (Hemostat Labs: DSB030). 1.5 mL of blood was placed into a microcentrifuge tube and centrifuged at 10,000 rpm for ten minutes. The supernatant was removed and then the cells were resuspended with 1 mL of phosphate-buffered saline (PBS). […] The absorbance of the supernatant was measured with a UV spectrometer at a 540 nm wavelength. […]
// return a plain number; no unit text

Problem: # red blood cell lysis lookup, item "CC(C)(C)c1ccc(Cc2ccc(C(C)(C)C)c(O)c2)cc1O"
Result: 0.02

Problem: # red blood cell lysis lookup, item "CC(C)(C)c1ccc(CCc2ccc(C(C)(C)C)c(O)c2)cc1O"
Result: 0.07

Problem: # red blood cell lysis lookup, item "CC(C)(C)c1ccc(CCc2cccc(O)c2)cc1O"
Result: −0.03

Problem: # red blood cell lysis lookup, item "COc1cc(CCc2ccc(C(C)(C)C)c(O)c2)ccc1C(C)(C)C"
Result: −0.02

Problem: # red blood cell lysis lookup, item "COc1cccc(CCc2ccccc2O)c1"
Result: −0.02
